# measured_on: SpLsb1
# assay: SPOT peptide array binding signal intensity (averaged, normalized) (arbitrary units (background-subtracted, floor 0; scale differs between SH3 domains)); higher = stronger binding of the SH3 domain to the peptide
Would you please tag the item label 1 when its SPOT peptide array binding signal intensity is 20 or above, and label 0 when it is below?

Look over these answered cases.
>>> group("VSKLRSPNTPRRLRK")
"label 1"
>>> group("RLSRLLLSLPPESFT")
"label 0"
>>> group("RRSKSLPTTPGIRSG")
"label 0"
>>> group("KKEKKPPKIPKKVYT")
"label 1"
>>> group("TPTSGPPLLPPRNTM")
"label 1"
>>> group("VPPPMQPPPIESSNL")
"label 0"

Okay, now this binder:
Say whether PHNPSPFFPPPDFND shows SPOT peptide array binding signal intensity of 20 or more.
label 0

Reference for the values: the supplement of paper PMC4466140
